From: patent US20220235057A1

# key: entry, value: pEC50
Test system: dengue virus (DENV)
Protocol text: anti-dengue virus activity (EC50)
Type: cell-based
pEC50: −log10 of the molar value.
Assay readout: pEC50

| Compound | Assay system | Measured result |
| --- | --- | --- |
| COc1ccc([C@H]2N(Nc3ccc([N+](=O)[O-])cc3)C(=O)[C@@H]3Cc4ccccc4N32)cc1OC | dengue virus (DENV) | 4.94 |
| O=C(NNc1ccccc1)C1CCc2ccccc2N1 (centres unmarked) | dengue virus (DENV) | 5.82 |
| O=C1C2CCc3ccccc3N2C(c2ccc(O)cc2)N1Nc1ccc([N+](=O)[O-])cc1 (centres unmarked) [ZXD-133A] | dengue virus (DENV) | 4.71 |
| O=C1C2CCCCN2C(c2ccco2)N1c1ccc([N+](=O)[O-])cc1 (centres unmarked) [ZBJ-12A] | dengue virus (DENV) | 5.92 |
| O=C1[C@@H]2CCc3ccccc3N2[C@@H](Cc2ccccc2)N1Nc1ccc([N+](=O)[O-])cc1 [ZXD-107A] | dengue virus (DENV) | 6.92 |
| COc1cc(C2N(Nc3ccccc3)C(=O)C3CCc4ccccc4N32)ccc1O[Si](C)(C)C(C)(C)C (centres unmarked) [ZXD-142A] | dengue virus (DENV) | 5.80 |
| O=C1[C@@H]2CCc3ccccc3N2[C@@H](c2ccccc2)N1Nc1ccc([N+](=O)[O-])cc1 | dengue virus (DENV) | 5.28 |
| O=C1[C@H]2CCc3ccccc3N2C(Cc2ccc([N+](=O)[O-])cc2)N1Nc1ccccc1 (some centres unmarked) [ZXD-100A] | dengue virus (DENV) | 5.70 |
